# credit: patent US4539429A

TEST_TARGET: lipoxygenase (Rattus norvegicus, UniProt P12527)
Construct: Single cell suspensions of RBL-1 cells are homogenized to obtain the microsomal fraction containing lipoxygenase and cyclooxygenase; endogenous in cells
Sequence (P12527 whole entry): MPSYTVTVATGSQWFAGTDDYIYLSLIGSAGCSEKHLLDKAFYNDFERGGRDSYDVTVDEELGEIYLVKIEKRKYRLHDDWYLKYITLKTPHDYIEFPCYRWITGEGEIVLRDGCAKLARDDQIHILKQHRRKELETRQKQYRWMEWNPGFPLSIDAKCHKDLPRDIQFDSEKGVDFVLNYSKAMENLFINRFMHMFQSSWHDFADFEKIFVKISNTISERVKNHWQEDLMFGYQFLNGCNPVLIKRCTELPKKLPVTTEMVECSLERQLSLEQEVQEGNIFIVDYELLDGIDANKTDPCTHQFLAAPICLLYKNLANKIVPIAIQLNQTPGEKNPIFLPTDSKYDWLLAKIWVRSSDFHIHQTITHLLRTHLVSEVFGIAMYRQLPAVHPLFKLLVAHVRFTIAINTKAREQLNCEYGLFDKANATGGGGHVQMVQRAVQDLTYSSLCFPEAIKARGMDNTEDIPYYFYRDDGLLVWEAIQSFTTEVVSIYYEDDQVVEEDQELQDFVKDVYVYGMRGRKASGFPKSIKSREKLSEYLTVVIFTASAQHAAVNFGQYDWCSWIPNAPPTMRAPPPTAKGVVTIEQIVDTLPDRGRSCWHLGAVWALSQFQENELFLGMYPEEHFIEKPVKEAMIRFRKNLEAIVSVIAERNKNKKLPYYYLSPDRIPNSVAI
EXPERIMENT_DESCRIPTION: Inhibition of lipoxygenase from rat basophilic leukemia (RBL-1) cells (formation of L1 5,12-di-HETE and L2 5-HETE)
READOUT: IC50
Returns: string containing the numeric result and its unit.

Incoming: Given COc1ccc(Nc2ccc(O)cc2)c(C(C)=O)c1 [Example 1c] , state its recorded IC50.
Outgoing: 70 nM
